Let's look at some molecules and their measured Avg (CREB S133).
- Test system: HCT116
- ASSAY COMMENT: Reverse Phase Protein Analysis (RPPA)
- Format: cell-based, human
- ASSAY CONTEXT: % change from DMSO (matched cell line)
- Description: Control wells were treated with DMSO at 0.1% (v/v) for 6 hours prior to cell lysate generation. Samples were then analyzed using reverse-phase protein microarray technology (Theranostics Health). Cell lines with common alterations in BRAF and RAS were assayed: BRAF^V600E mutant lines A375, Colo205, and HT29; KRAS^G12C-mutant cell line MIAPACa-2; KRAS^G13D-mutant cell line HCT116; and AN3Ca with atypical HRAS^F82L mutation. […]
MEASURED ENDPOINT: Avg (CREB S133) (%)

- MOLECULE: "Cc1cnc(Nc2ccc(F)cc2Cl)nc1-c1c[nH]c(C(=O)N[C@H](CO)c2cccc(Cl)c2)c1 [Vx-11e]"
  UNITS: "%"
  QUANTITATIVE READOUT: "−9.17"
- MOLECULE: "O=C(Nc1ccc2[nH]nc(-c3ccncc3)c2c1)[C@@H]1CCN(CC(=O)N2CCN(c3ccc(-c4ncccn4)cc3)CC2)C1 [SCH772984]"
  UNITS: "%"
  QUANTITATIVE READOUT: "−24.18"
- MOLECULE: "Cn1nccc1Nc1nccc(-c2ccn([C@H](CO)c3ccc(Cl)c(F)c3)c(=O)c2)n1 [GDC-0994]"
  UNITS: "%"
  QUANTITATIVE READOUT: "−8.56"
- MOLECULE: "CC(C)Nc1cc(-c2c[nH]c(C(=O)N[C@H](CO)c3cccc(Cl)c3)c2)c(Cl)cn1 [BVD-523]"
  UNITS: "%"
  QUANTITATIVE READOUT: "−30.64"

----------
- Test system: MIAPaCa-2
- ASSAY COMMENT: Reverse Phase Protein Analysis (RPPA)
- Format: cell-based
- ASSAY CONTEXT: MIAPaca2; % change from DMSO (matched cell line)
Avg (Akt) by entry:

- MOLECULE: "Cc1cnc(Nc2ccc(F)cc2Cl)nc1-c1c[nH]c(C(=O)N[C@H](CO)c2cccc(Cl)c2)c1 [Vx-11e]"
  TARGET UNDER TEST: "MIAPaCa-2"
  UNITS: "%"
  Avg (Akt): "−0.15"
- MOLECULE: "Cn1nccc1Nc1nccc(-c2ccn([C@H](CO)c3ccc(Cl)c(F)c3)c(=O)c2)n1 [GDC-0994]"
  TARGET UNDER TEST: "MIAPaCa-2"
  UNITS: "%"
  Avg (Akt): 4.33
- MOLECULE: "O=C(Nc1ccc2[nH]nc(-c3ccncc3)c2c1)[C@@H]1CCN(CC(=O)N2CCN(c3ccc(-c4ncccn4)cc3)CC2)C1 [SCH772984]"
  TARGET UNDER TEST: "MIAPaCa-2"
  UNITS: "%"
  Avg (Akt): 13.47
- MOLECULE: "CC(C)Nc1cc(-c2c[nH]c(C(=O)N[C@H](CO)c3cccc(Cl)c3)c2)c(Cl)cn1 [BVD-523]"
  TARGET UNDER TEST: "MIAPaCa-2"
  UNITS: "%"
  Avg (Akt): 23.63

----------
// Avg (mTOR S2481) lookup, one value per entry
- Test system: MIAPaCa-2
- ASSAY COMMENT: Reverse Phase Protein Analysis (RPPA)
- Format: cell-based
- ASSAY CONTEXT: MIAPaca2; % change from DMSO (matched cell line)
MEASURED ENDPOINT: Avg (mTOR S2481) (%)

- MOLECULE: "Cn1nccc1Nc1nccc(-c2ccn([C@H](CO)c3ccc(Cl)c(F)c3)c(=O)c2)n1"
  QUANTITATIVE READOUT: 3.65
- MOLECULE: "O=C(Nc1ccc2[nH]nc(-c3ccncc3)c2c1)[C@@H]1CCN(CC(=O)N2CCN(c3ccc(-c4ncccn4)cc3)CC2)C1"
  QUANTITATIVE READOUT: 2.43
- MOLECULE: "Cc1cnc(Nc2ccc(F)cc2Cl)nc1-c1c[nH]c(C(=O)N[C@H](CO)c2cccc(Cl)c2)c1 [Vx-11e]"
  QUANTITATIVE READOUT: "−3.12"
- MOLECULE: "CC(C)Nc1cc(-c2c[nH]c(C(=O)N[C@H](CO)c3cccc(Cl)c3)c2)c(Cl)cn1"
  QUANTITATIVE READOUT: "−0.24"
